- SYSTEM_TESTED: human melanocortin-4 receptor (recombinant hMC4-R) (human, UniProt P32245 1-332)
- Sequence (P32245 whole entry): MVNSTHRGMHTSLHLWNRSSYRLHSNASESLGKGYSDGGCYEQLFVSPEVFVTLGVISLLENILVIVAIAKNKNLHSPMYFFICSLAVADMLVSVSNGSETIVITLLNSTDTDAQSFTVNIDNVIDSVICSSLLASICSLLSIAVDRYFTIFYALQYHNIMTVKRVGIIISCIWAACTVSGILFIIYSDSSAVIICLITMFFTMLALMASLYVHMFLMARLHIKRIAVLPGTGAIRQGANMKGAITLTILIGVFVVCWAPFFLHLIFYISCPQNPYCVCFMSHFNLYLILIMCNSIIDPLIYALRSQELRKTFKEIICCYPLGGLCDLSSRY
- PROTOCOL_SUMMARY: cell-based or functional assay
Bridge positions count the residues as written; N and C are the ends. Square brackets hold non-standard residues; d marks the D form. Met(O2) = CS(=O)(=O)CC[C@H](N)C(=O)O; Hyp = O=C(O)[C@@H]1C[C@@H](O)CN1; Orn = NCCC[C@H](N)C(=O)O
ATTRIBUTE_MEASURED: Ec50 (nM), cAMP

{"BINDER": "Ac-RD[Orn][dF]RWK-OH (lactam 2-7) [Asp...Lys analog of peptide No. 7: Ac-Arg-cyclo(Asp-Orn-D-Phe-Arg-Trp-Lys)-OH]", "ATTRIBUTE_MEASURED": "Ec50 (nM), cAMP", "MEASUREMENT_UNITS": "nM", "NUMERIC_VALUE": 12}
{"BINDER": "Ac-RD[Hyp][dF]RWK-NH2 (lactam 2-7, also called Peptide Structure (Asp...Lys) in the row of No. 14) [Asp...Lys analog of peptide No. 14: Ac-Arg-cyclo(Asp-Hyp-D-Phe-Arg-Trp-Lys)-NH2]", "ATTRIBUTE_MEASURED": "Ec50 (nM), cAMP", "MEASUREMENT_UNITS": "nM", "NUMERIC_VALUE": 27}
{"BINDER": "Ac-REN[dF]RW[Orn]-NH2 (lactam 2-7) [Peptide No. 34: Ac-Arg-cyclo(Glu-Asn-D-Phe-Arg-Trp-Orn)-NH2]", "ATTRIBUTE_MEASURED": "Ec50 (nM), cAMP", "MEASUREMENT_UNITS": "nM", "NUMERIC_VALUE": 0.4}
{"BINDER": "Ac-RD[Orn](Ac)[dF]RWK-NH2 (lactam 2-7) [Asp...Lys analog of peptide No. 33: Ac-Arg-cyclo(Asp-Orn(Acetyl)-D-Phe-Arg-Trp-Lys)-NH2]", "ATTRIBUTE_MEASURED": "Ec50 (nM), cAMP", "MEASUREMENT_UNITS": "nM", "NUMERIC_VALUE": 532}
{"BINDER": "Ac-RD[Met(O2)][dF]RWK-NH2 (lactam 2-7, also called Peptide Structure (Asp...Lys) in the row of No. 13) [Asp...Lys analog of peptide No. 13: Ac-Arg-cyclo(Asp-Met(O2)-D-Phe-Arg-Trp-Lys)-NH2]", "ATTRIBUTE_MEASURED": "Ec50 (nM), cAMP", "MEASUREMENT_UNITS": "nM", "NUMERIC_VALUE": 35}
{"BINDER": "Ac-RE[Orn][dF]RW[Orn]-NH2 (lactam 2-7) [Peptide No. 8: Ac-Arg-cyclo(Glu-Orn-D-Phe-Arg-Trp-Orn)-NH2]", "ATTRIBUTE_MEASURED": "Ec50 (nM), cAMP", "MEASUREMENT_UNITS": "nM", "NUMERIC_VALUE": 0.4}
